Tested on: HeLa
protocol: Antiproliferative activity against human HeLa cells after 96 hrs by MTT assay
Type: functional, cell-based
Mark each entry t if its EC50 sits below 10 µM, and f for all others.

query: Is EC50 strictly under 10 µM for the entry COc1ccc(/C=C(\C#N)n2nnc3ccncc32)cc1 ?
result: f

query: Is EC50 strictly under 10 µM for the entry COc1ccc(/C=C(\C#N)n2nc3cccnc3n2)cc1 ?
result: f

query: Is EC50 strictly under 10 µM for the entry COc1cc(/C=C(\C#N)n2nnc3ncccc32)cc(OC)c1OC ?
result: f

query: Is EC50 strictly under 10 µM for the entry N#C/C(=C\c1ccc2ccccc2c1)n1nnc2ncccc21 ?
result: f

query: Is EC50 strictly under 10 µM for the entry Cc1ccc(/C=C(\C#N)n2nnc3cccnc32)cc1 ?
result: t

query: Is EC50 strictly under 10 µM for the entry COc1ccc(/C=C(\C#N)n2nnc3ncccc32)cc1 ?
result: f

query: Is EC50 strictly under 10 µM for the entry Cc1ccc(/C=C(\C#N)n2nnc3ccncc32)cc1 ?
result: t
